Test system: ACHN renal
assay: NCI tumour cell line growth inhibition, 48 h
property measured: TGI

>  <compound>
Cc1c(C#N)c(N)n(C2OC(CO)C(O)C(O)C2O)c(=S)c1C#N (stereo not drawn)

>  <property measured>
TGI

>  <result>
> 100 µM

$$$$
>  <compound>
Cc1nn(C(=O)c2ccncc2)c2c1C(c1ccc([N+](=O)[O-])cc1)SC(N)=N2 (stereo not drawn)

>  <property measured>
TGI

>  <result>
> 100 µM

$$$$
>  <compound>
O=C1CCC(N2C(=O)c3cccc(NCCOCCOCCNC(=O)c4cc5c(o4)C(=O)c4ccccc4C5=O)c3C2=O)C(=O)N1 (stereo not drawn)

>  <property measured>
TGI

>  <result>
6.62 µM

$$$$
>  <compound>
CC(C)C[C@H](NC(=O)CCc1cccc2ccccc12)B(O)O

>  <property measured>
TGI

>  <result>
> 100 µM

$$$$
>  <compound>
CN[C@H]1CC[C@]23C[C@]24CC[C@]2(C)[C@@H]([C@H](C)N(C)C)CC[C@@]2(C)[C@@H]4CC[C@H]3C1(C)C

>  <property measured>
TGI

>  <result>
31 µM

$$$$
>  <compound>
O=C(COC(=O)c1cccc2c(=O)c3ccccc3[nH]c12)Nc1ccc(S(=O)(=O)Nc2ncccn2)cc1

>  <property measured>
TGI

>  <result>
> 100 µM

$$$$
>  <compound>
N#CC(C(=O)O)C(c1c(Cl)cccc1Cl)C(C#N)C(=O)O (stereo not drawn)

>  <property measured>
TGI

>  <result>
> 100 µM

$$$$
>  <compound>
C/C=C(\C)C(=O)N1c2ccccc2CC1c1c(C)[nH]c2ccccc12 (stereo not drawn)

>  <property measured>
TGI

>  <result>
> 100 µM

$$$$
>  <compound>
COc1cc(OC2OC(CO)C(O)C(O)C2O)c2c(c1)O[C@@H]1[C@H](O)Oc3cc(OC)c(OC)cc3[C@]1(O)C2=O (stereo partly drawn)

>  <property measured>
TGI

>  <result>
> 25 µM

$$$$
>  <compound>
CC(=O)OCc1nnn2c1CCC2

>  <property measured>
TGI

>  <result>
> 100 µM

$$$$
>  <compound>
COC(=O)C1SC[C@H]2C(=O)N(c3ccccc3)C(=O)N12 (stereo partly drawn)

>  <property measured>
TGI

>  <result>
> 100 µM

$$$$
>  <compound>
CC(=O)OC1(C#N)CC2OC1C1N=NN(C(=O)OC(C)(C)C)C21 (stereo not drawn)

>  <property measured>
TGI

>  <result>
> 100 µM

$$$$
>  <compound>
COc1ncc(C#CC(=O)c2ccccc2)c(OC)n1

>  <property measured>
TGI

>  <result>
3.7 µM

$$$$
